- Test system: SR
- ASSAY METHOD TEXT: NCI tumour cell line growth inhibition, 48 h
Active and inactive are the calls of the source. Rule as the data show it: active = GI50 up to about 1.1 µM and inactive = higher.
// one of active, inactive, no free text

Problem: Hi team, can someone confirm the assay call for CC1=C2C(=O)c3ccccc3C(=O)[C@H]2[C@H]2CCO[C@H]2O1 ?
Solution: inactive

Problem: Hi team, can someone confirm the assay call for C#CC(O)/C=C/C(O)CCCC(O)CC#CC(O)C#CC(O)CCCC(O)/C=C/CCCC(=O)CCCCCCCCCCCCCCCC(O)C(O)C#CC(=O)O (stereo not given) ?
Solution: inactive

Problem: Hi team, can someone confirm the assay call for FC(F)(F)C1(c2ccccc2)SCc2nc3ccccc3n21 (stereo not given) ?
Solution: inactive

Problem: Hi team, can someone confirm the assay call for Cc1ccc(/C=C2\CN(C)CC3=C2N=C(S)NC3c2ccc(C)cc2)cc1 (stereo not given) ?
Solution: active

Problem: Hi team, can someone confirm the assay call for COc1cc2c3c(n(C)c(=O)c2cc1OC)-c1cc2c(cc1/C3=C/CCCCBr)OCO2 ?
Solution: inactive

----------
- System: HCT-116
- ASSAY METHOD TEXT: NCI tumour cell line growth inhibition, 48 h
Activity calls are given as the source filed them. No stated cut-off is given here; in the data, active = GI50 up to about 1.1 µM and inactive = higher.
// one of active, inactive, no free text

Problem: Hi team, can someone confirm the assay call for COC(=O)c1c(O)ccc2c1c1c(n2-c2ccc(OC)cc2)C(=O)c2ccccc2C1=O ?
Solution: inactive

Problem: Hi team, can someone confirm the assay call for Nc1ccc(Oc2ccc(C34CC5C6CC7(c8ccc(Oc9ccc(N)cc9)cc8)CC5C(C3)C(C7)C6C4)cc2)cc1 ?
Solution: inactive

Problem: Hi team, can someone confirm the assay call for CC(=O)OCCOc1cc2c([nH]c3ccccc32)c(C)c2cccc1-2 ?
Solution: inactive

Problem: Hi team, can someone confirm the assay call for COC(=O)c1cncc2c1CC1C3(C(=O)OC)C=NC(C4C(CO)=CCC43)C21C (configuration not stated) ?
Solution: inactive

Problem: Hi team, can someone confirm the assay call for COc1ccc(-c2c3c(cc4cc5c(cc24)OCO5)C(=O)OC3)cc1OC ?
Solution: active

Problem: Hi team, can someone confirm the assay call for COc1ccc2c(c1)nc1n2C(c2c(Cl)cccc2Cl)SC1 (configuration not stated) ?
Solution: inactive

Problem: Hi team, can someone confirm the assay call for O=C(NCCCCNCCCNC(=O)c1cc(-c2ccccc2)nc2ccccc12)c1cc(-c2ccccc2)nc2ccccc12 ?
Solution: inactive

Problem: Hi team, can someone confirm the assay call for N=C(N)N/N=C/c1c(-c2ccccc2)nc2ccn3c(/C=N/N=C(N)N)c(-c4ccccc4)nc3n12 ?
Solution: inactive

Problem: Hi team, can someone confirm the assay call for COc1cc(C2=C(c3cc(OC)c4ccccc4c3OC)C(=O)c3ccccc3C2=O)c(OC)c2ccccc12 ?
Solution: inactive

Problem: Hi team, can someone confirm the assay call for COC(=O)C12OC(C)(C(CC(=O)OC(C)(C)C)C1=O)C1C(=O)N(c3ccccc3)C(=O)C12 (configuration not stated) ?
Solution: inactive

Problem: Hi team, can someone confirm the assay call for O=C1c2ccccc2C(=O)N1c1nc(-c2ccc(Cl)cc2)cc(N2N=C(c3ccc(Br)cc3)CC2c2ccccc2)n1 (configuration not stated) ?
Solution: inactive

Problem: Hi team, can someone confirm the assay call for N#CCCN(CCC#N)c1ccc(/C=C2\N=C(c3cc([N+](=O)[O-])ccc3Cl)OC2=O)cc1 ?
Solution: inactive

----------
- Test system: OVCAR-4
- ASSAY METHOD TEXT: NCI tumour cell line growth inhibition, 48 h
Activity calls are given as the source filed them. No stated cut-off is given here; in the data, active = GI50 up to about 1.1 µM and inactive = higher. Numbered stars: 1 amine (or outer) side, 2 acyl side, 3 side chain; on linkers, the order of the positions; unused ones are H or OH. Bridge positions count the residues as written; N and C are the ends. Square brackets hold non-standard residues; d marks the D form. Peptide text beside a SMILES is read from it. I, II: the chains in the order shown. Actinocin(9to1) = Cc1c2oc3c(C)ccc(C(=O)[*:1])c3nc-2c(C(=O)[*:2])c(N)c1=O; NMeH = CN[CH](Cc1c[nH]cn1)C(=O)O; Sar = CNCC(=O)O
// one of t (active), f (inactive), no free text

Problem: Hi team, can someone confirm the assay call for CC(=O)Nc1ccc(S(=O)(=O)N/N=C(\C)CN2C(=O)c3ccccc3C2=O)cc1 ?
Solution: f

Problem: Hi team, can someone confirm the assay call for Cc1c2oc3c(C)ccc(C(=O)NC4C(=O)NC(C(C)C)C(=O)N5CCCC5C(=O)N(C)CC(=O)N(C)C(Cc5cnc[nH]5)C(=O)OC4C)c3nc-2c(C(=O)NC2C(=O)NC(C(C)C)C(=O)N3CCCC3C(=O)N(C)CC(=O)N(C)C(Cc3cnc[nH]3)C(=O)OC2C)c(N)c1=O (stereo not drawn) (I: TVP[Sar][NMeH] / II: TVP[Sar][NMeH]; ester I:1-I:C, II:1-II:C; linker I:N-II:N via Actinocin(9to1); configuration not given here) ?
Solution: f

Problem: Hi team, can someone confirm the assay call for Cc1cc(N2CCN(C)CC2)n2nc(-c3ccc(Cl)cc3)nc2n1 ?
Solution: f

Problem: Hi team, can someone confirm the assay call for CCCCCCCCCCCC(=O)OCCOCCOCCOCCOCCOCc1ccccc1 ?
Solution: f

Problem: Hi team, can someone confirm the assay call for CC[C@@H]1CC[C@@H]2[C@H](CC[C@]3(C)[C@@H](O[N+](=O)[O-])CC[C@@H]23)[C@H]1C(C)=O ?
Solution: f

Problem: Hi team, can someone confirm the assay call for N=C(N)N/N=C/c1c(-c2ccccc2)nc2ccn3c(/C=N/N=C(N)N)c(-c4ccccc4)nc3n12 ?
Solution: f

Problem: Hi team, can someone confirm the assay call for CCCCCCCC/C=C/CCCCCCCC1CC(O)C(=O)O1 (stereo not drawn) ?
Solution: f

Problem: Hi team, can someone confirm the assay call for COC(C)(C)C1=CCC(C)CC1 (stereo not drawn) ?
Solution: f

Problem: Hi team, can someone confirm the assay call for COC(=O)C1CCc2nnc(-c3cccnc3)n21 (stereo not drawn) ?
Solution: f

Problem: Hi team, can someone confirm the assay call for O=c1[nH]nc(Cc2ccc(Cl)cc2)n1/N=C\c1ccc(/C=N/n2c(Cc3ccc(Cl)cc3)n[nH]c2=O)cc1 ?
Solution: f

Problem: Hi team, can someone confirm the assay call for O=C1c2ccccc2C(=O)N1c1nc(-c2ccc(Cl)cc2)cc(N2N=C(c3ccc(Br)cc3)CC2c2ccccc2)n1 (stereo not drawn) ?
Solution: f

Problem: Hi team, can someone confirm the assay call for CN/C(=N\N=C1/C(=O)Nc2ccccc21)SCC(=O)c1ccc(Br)cc1 ?
Solution: f

Problem: Hi team, can someone confirm the assay call for c1ccc2c(c1)[nH]c1nc3cc(-c4ccc5nc6c(nc5c4)[nH]c4ccccc46)ccc3nc12 ?
Solution: f

Problem: Hi team, can someone confirm the assay call for CCCCCCCCCCCCCC(=O)O.O=CC(O)C(O)C(OC1OC(CO)C(O)C(O)C1O)C(O)CO (stereo not drawn) ?
Solution: f

Problem: Hi team, can someone confirm the assay call for O=C(/C=C/c1c(O)ccc2ccccc12)c1cccc(O)c1 ?
Solution: f

Problem: Hi team, can someone confirm the assay call for CC1(C)OCC(COC(=O)C=[N+]=[N-])O1 (stereo not drawn) ?
Solution: f

Problem: Hi team, can someone confirm the assay call for O=Cc1[nH]c(=O)[nH]c(=O)c1C(=O)O ?
Solution: f

Problem: Hi team, can someone confirm the assay call for Nc1ccc2c(c1)C(=O)N(OS(=O)(=O)c1ccccc1)C2=O ?
Solution: f

Problem: Hi team, can someone confirm the assay call for CN(C)CC(/C(Cc1ccccc1)=N\NC(=S)NN)c1ccccc1 (stereo not drawn) ?
Solution: f

Problem: Hi team, can someone confirm the assay call for COc1cc2ncnc(NS(=O)(=O)c3cc4ccccc4s3)c2cc1OC ?
Solution: f

Problem: Hi team, can someone confirm the assay call for O=C1OC(CS(=O)(=O)c2ccccc2)CC1O (stereo not drawn) ?
Solution: f

Problem: Hi team, can someone confirm the assay call for Cc1ccc(NC(=O)CC/C(CC(=O)c2ccc(F)cc2)=N\NC(=O)C(=O)NN)cc1C ?
Solution: f

Problem: Hi team, can someone confirm the assay call for C[N+](C)(C)CC1CCCC/C1=N\O (stereo not drawn) ?
Solution: f

Problem: Hi team, can someone confirm the assay call for N#Cc1c(-c2ccccc2)cc(Nc2ccc(F)cc2)n2c1nc1ccccc12 ?
Solution: f

Problem: Hi team, can someone confirm the assay call for O=[N+]([O-])c1cc(-c2nnc(S)[nH]2)ccc1O ?
Solution: f

Problem: Hi team, can someone confirm the assay call for COc1ccc2nc3ccccc3c(NCCCCCCN(CCCl)CCCl)c2c1 ?
Solution: t

Problem: Hi team, can someone confirm the assay call for Cc1c2ccnc(C(F)(F)F)c2cc2c1[nH]c1ccccc12 ?
Solution: f

Problem: Hi team, can someone confirm the assay call for Cc1ccc(NC(=O)CCCC(=O)CC(=O)c2ccc(Br)cc2)cc1 ?
Solution: f

Problem: Hi team, can someone confirm the assay call for C1=C\CCCCN2C[C@H]3CCCC/C=C\CCCCN4CC[C@@H]([C@H](CCCCCC/1)C4)[C@H](C3)C2 ?
Solution: f

Problem: Hi team, can someone confirm the assay call for COc1ccc(N2C(=O)C3c4[nH]c5ccccc5c4C4CC(C)(C)CC(C)(C)C4C3C2=O)cc1 (stereo not drawn) ?
Solution: f

Problem: Hi team, can someone confirm the assay call for COc1cc(CCNC2=CC(=O)c3cccnc3C2=O)ccc1O ?
Solution: f

Problem: Hi team, can someone confirm the assay call for CC(=O)C1=NN(c2ccccc2)C2(S1)SC(c1ccccc1)(c1ccccc1)c1ccccc12 (stereo not drawn) ?
Solution: f

Problem: Hi team, can someone confirm the assay call for CC(NC(=O)Cc1ccccc1)NC(=O)C(C)C(=O)Nc1ccccc1 (stereo not drawn) ?
Solution: f

Problem: Hi team, can someone confirm the assay call for O=C(CCl)NC(Cc1ccc(F)cc1)C(=O)O (stereo not drawn) ?
Solution: f

Problem: Hi team, can someone confirm the assay call for CC(=O)Oc1cc(OC(C)=O)c(OC(C)=O)c2c1CC1C(=O)C3(CCc4ccccc43)C(=O)C1C2 (stereo not drawn) ?
Solution: f

Problem: Hi team, can someone confirm the assay call for O=C(O)CCCc1cc2c(s1)-c1cccc3cccc-2c13 ?
Solution: f

Problem: Hi team, can someone confirm the assay call for CCCC(=O)Nc1cc(/C=C/C(=O)N2CC(CCl)c3ccc([N+](=O)[O-])cc32)n(C)c1 (stereo not drawn) ?
Solution: f

Problem: Hi team, can someone confirm the assay call for NC(Cc1cc(I)c(Oc2ccc(O)c(I)c2)c(I)c1)C(=O)O (stereo not drawn) [RATHYRONINE] ?
Solution: f
